targetOrTestSystem: RAF kinases (Homo sapiens (Human))
Sequence (P04049 whole entry): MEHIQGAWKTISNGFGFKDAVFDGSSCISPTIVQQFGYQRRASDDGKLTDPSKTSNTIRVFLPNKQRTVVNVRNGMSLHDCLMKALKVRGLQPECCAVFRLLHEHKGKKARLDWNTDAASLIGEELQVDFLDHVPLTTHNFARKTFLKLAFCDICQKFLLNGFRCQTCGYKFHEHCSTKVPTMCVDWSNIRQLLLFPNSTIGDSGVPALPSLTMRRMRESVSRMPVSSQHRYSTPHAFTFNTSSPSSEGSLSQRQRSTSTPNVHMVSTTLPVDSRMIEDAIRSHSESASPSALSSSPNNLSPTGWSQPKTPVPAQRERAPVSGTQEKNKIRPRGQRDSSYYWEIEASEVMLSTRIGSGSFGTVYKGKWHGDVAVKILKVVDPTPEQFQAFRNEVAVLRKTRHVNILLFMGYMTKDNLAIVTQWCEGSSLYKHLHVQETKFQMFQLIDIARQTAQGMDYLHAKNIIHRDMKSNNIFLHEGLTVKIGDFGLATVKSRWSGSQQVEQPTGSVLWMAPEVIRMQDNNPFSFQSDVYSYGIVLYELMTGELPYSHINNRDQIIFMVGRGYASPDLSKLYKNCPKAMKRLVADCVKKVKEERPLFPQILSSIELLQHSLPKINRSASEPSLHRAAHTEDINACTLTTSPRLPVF
pKd: −log10 of the molar value.
recordedEndpoint: pKd

COc1cc2ncnc(Oc3cccc(NC(=O)Nc4cc(-c5ccccc5)on4)c3)c2cc1OC: > 6.60
COc1cc2ncnc(Sc3cccc(NC(=O)Nc4cc(C(C)(C)C)on4)c3)c2cc1OCCS(C)(=O)=O: > 6.60
COc1cc2ncnc(Oc3cccc(NC(=O)Nc4cc(C(F)(F)F)nn4-c4ccc(C)cc4)c3)c2cc1OC: < 6.00

Turning to the following compound.
Fetch value of pKd on RAF kinases (Homo sapiens (Human)) for "COc1cc2c(Oc3cccc(NC(=O)Nc4cc(C(C)(C)C)on4)c3)ncnc2cc1OC1CCN(CC(F)F)CC1" . < 6.00
